target: human Claudin18.2 (human); experiment: cell-based or functional assay
MEASURED PROPERTY: CDC % Relative activity (%)
Only the number, expressed in %, is required.

See these solved cases before continuing.
INSERT INTO measurements (binder, endpoint_result) VALUES
  ('182D10F1 (antibody, V domains shown) VH: QAYLQQSGAELVRSGASVKMSCKASGYTFSSYNMHWVKQTPGQGLEWIGYIYPGNGGTNYNQKFKGKATLTADTSSSTAYMQISSLTSEDSAVYFCLTGRGFTYWGQGTLVTVSA VL: DIVMTQSPSSLTVTAGEKVTMNCKSSQSLFNSGNQKNYLTWYQQKPGQPPKLLIYRASTRESGVPDRFTGSGSGTDFTLTISSVQAEDLAVYYCQNDYSYPLTFGVGTKLELK', 195),
  ('418B8B10 (antibody, V domains shown) VH: DVQLVESGGGLVQPGGSRKLSCAASGFTFSSFGMHWVRQAPEKGLEWVAYISSGSSPIYYTDTVKGRFTISRDNPKNTLFLQMTSLRSEDTAMYFCARFYYGNSFDHWGQGTLVTVSA VL: DIVMTQSPSSLTVTAGEKVSMSCKSSQSLFNRGNQKSYLTWYQQRPGQPPKLLIYWASTRESGVPDRFTGSGSGTDFTLTISSVQAEDLAVYYCQNNYIYPLTFGAGTKLELK', 30.8),
  ('424G9G3 (antibody, V domains shown) VH: QVQLQQSGPEVVRPGASVKMSCKGSGYTLNNFWMHWVKQRPGQGLEWIGMIDTSNGETRLNQIFKDKATLTVDKSSKTAYMQLSSLTSEDSAVYYCAPYGNFADWGQGTTLTVSS VL: DVLLTQTPLSLPVSLGDQASISCRSSQSIVYGNGNTYLEWYLQKPGQSPKLLIYKVSSRFSGVPDRFSGSGSGTDFTLKITKVEAEDLGVYYCFQGSHVPFTFGSGTKLEIK', 9.38),
  ('258D11C4 (antibody, V domains shown) VH: QAYLQQSGAELVRSGASVKMSCKASGYTFSSHNMHWVKQTPGQGLEWIGYIYPGNGGTNYNQKFKGKATLTADTSSSTAYMQISSLTSEDSAVYFCTRDYYGNSFAYWGQGTLVTVSA VL: DIVMTQSPSSLTEKAGERVSMSCKSSQSLFNSGNQKNYLTWYQQKPGQPPKLLIYWASTRQSGVPDRFTGSGSGTDFTLTISSVQAEDLAVYYCQNDYWFPFTFGAGTKLELK', 142),
  ('260G9E8 (antibody, V domains shown) VH: QADLQQSGAELVRSGASVKMSCKASGYTFASHNMHWVKQTPGQGLEWIGYIYPGNGGTKYNQKFTGKATLTADTSSSTAYMQITSLTSEDSAVYFCARDYYGNSFAYWGQGTLVTVSA VL: DIVMTQSPSSLTEKAGEKVSMRCKSSQSLLNSGNQKNYLTWYQQKPGQPPKLLIYWASTRESGVPDRFTGSGSGTDFTLTISSVQADDLAVYYCQNDYMFPFTFGAGTKLELK', 164);

// below: CDC % Relative activity requested for another binder
So, 240A8E7 (antibody, V domains shown) VH: QAYLQQSGAELVRSGASVKMSCKASGYTFTNYNIHWVKQTPGQGLEWIGYIYPGNGDNYYNQKFKGKATLTADTSSSTAYMQISSLTSEDSAVYFCARDYYGNSFAYWGQGTLVTVSA VL: DVVMTQSPSSLTVTAGEKVTMNCKSSQSLLNSGNQKNYLTWYQQKPGQPPKMLIYWASTRESGVPDRFTGSGSGTDFTLTISSVQAEDLAIYYCQNDYYYPFTFGAGTKLELK ? Its CDC % Relative activity was 120
